Values of log10 of IC50 reported for MMP-3 (Homo sapiens, UniProt P08254) appear below.
Please keep in mind that the values are log10 of IC50 expressed in µM.

COMPOUND: COc1cc(/C=C/C(=O)C(C(=O)/C=C/c2ccc(O)c(OC)c2)C(=O)Nc2ccccc2)ccc1O
ASSAY SYSTEM: MMP-3 (Homo sapiens, UniProt P08254)
Sequence (P08254 100-477): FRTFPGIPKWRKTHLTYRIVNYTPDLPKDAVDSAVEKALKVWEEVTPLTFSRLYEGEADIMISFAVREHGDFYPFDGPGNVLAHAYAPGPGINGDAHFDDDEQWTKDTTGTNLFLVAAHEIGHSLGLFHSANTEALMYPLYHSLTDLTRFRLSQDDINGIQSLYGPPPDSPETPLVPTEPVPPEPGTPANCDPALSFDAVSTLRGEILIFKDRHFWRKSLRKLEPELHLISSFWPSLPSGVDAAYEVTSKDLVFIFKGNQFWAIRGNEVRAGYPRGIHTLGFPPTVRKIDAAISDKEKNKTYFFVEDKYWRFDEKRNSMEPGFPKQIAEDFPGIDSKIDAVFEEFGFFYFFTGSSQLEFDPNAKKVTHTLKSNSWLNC
METRIC: log10 of IC50
READOUT VALUE: 0.72
--
COMPOUND: c1cnc2c(c1)ccc1cccnc12 [1,10-Phen, 1,10-phenanthroline, reference compound]
ASSAY SYSTEM: MMP-3 (Homo sapiens, UniProt P08254)
METRIC: log10 of IC50
READOUT VALUE: 1.89
--
COMPOUND: COc1cc(/C=C/C(=O)CC(=O)/C=C/c2ccc(O)c(OC)c2)ccc1O [Compound 1, reference compound]
ASSAY SYSTEM: MMP-3 (Homo sapiens, UniProt P08254)
METRIC: log10 of IC50
READOUT VALUE: 0.67
--
COMPOUND: O=C(/C=C/c1ccc(O)cc1)C(C(=O)/C=C/c1ccc(O)cc1)C(=O)Nc1ccccc1
ASSAY SYSTEM: MMP-3 (Homo sapiens, UniProt P08254)
METRIC: log10 of IC50
READOUT VALUE: 0.46

Consider the additional compound presented here.
Q: Identify measured log10 of IC50 corresponding to COC(=O)C(C(=O)/C=C/c1ccc(O)c(OC)c1)C(=O)/C=C/c1ccc(O)c(OC)c1
Result: 1.51

Cited source for all entries: patent US20160355465A1
